# experiment: Solubility in water and organic solvents
# conditions used: n-octanol, organic solvent or mixture
endpoint label: solubility

What does the data say about its solubility? Entry: CCCCCCCCCCCCCCCC(=O)NCCCO [Example 24, N-(3-hydroxypropyl)-palmitamide]
> 10000 µg/mL

How about this compound: CCCCCCCCCCCCCCCC(=O)N(C)CCO [Example 14]
> 10000 µg/mL

====

For each of the compounds below, state its pEC50.
# System: RBL-2H3 cells
# experiment: Inhibition of 3H-serotonin release induced by ADNP/DNP-HSA immunogenic stimulation in RBL-2H3 cells
# Assay type: cell-based, rat
# conditions used: Rattus norvegicus, RBL-2H3, read-out: EC50, concentration inhibiting by 50% the net release of 3H serotonin, 0.2% DMSO; 15 minutes release period (Table 9)
Please express pEC50 as -log10 of the molar concentration.

What does the data say about its pEC50? Entry: CCCCCCCCCCCC(=O)NCCc1ccc(O)cc1 [Example 11, N-(p-hydroxyphenylethyl)-lauroylamide]
4.59

How about this compound: CCCCCCCCCCCCCCCC(=O)NC[C@@H](C)O [Example 32, N-palmitoyl-[R(-)-1-amino-2-propanol]]
6.14

How about this compound: CCCCCCCCCCCC(=O)NCCO [Example 22, N-(2-hydroxyethyl)-lauroylamide]
4.46

How about this compound: `CCCCCCCCCCCCCCCC(=O)N[C@H](CO)c1ccccc1`
5.74

How about this compound: CCCCCCCCCCCCCCCC(=O)N[C@H](C)[C@@H](O)c1ccccc1 [Example 5, N-palmitoyl-[(1S,2R)-(+)-norephedrine]]
5.10

How about this compound: CCCCCCCCCCCCCCCC(=O)NCCOC [Example 35, N-(2-methoxy-ethyl)-palmitoylamide]
5.20

How about this compound: `CCCCCCCCCCCCCCCC(=O)NCc1ccc(O)c(OC)c1`
5.82

How about this compound: `CCCCCCCC/C=C\CCCCCCCC(=O)NCc1ccc(O)c(OC)c1`
5.20

====

For each of the compounds below, state its IC50.
# measured on: CB2 receptor (RBL-2H3 cell membranes) (Rattus norvegicus)
# Construct: Preparation of Plasmatic Membranes of RBL-2H3 Cells; endogenous in cells; host or cells: RBL-2H3 (rat basophilic leukemia) cell membranes
# experiment: Competitive displacement of 3H-WIN 55,212-2 binding to RBL-2H3 cell membranes
Value expressed in nM; do not type the unit.

What does the data say about its IC50? Entry: CCCCCCCCCCCCCCCC(=O)NCCOP(=O)(O)O [Example 27, N-palmitoylethanolamide phosphate]
7.6

How about this compound: CCCCCCC(C)(C)c1cc(O)c2c(c1)OC(C)(C)[C@@H]1CCC(=O)C[C@@H]21 (relative stereo) [Nabilone, reference compound]
2.6

How about this compound: CCCCCCCCCCCCCCCC(=O)NCCO [Example 25, N-palmitoylethanolamide]
1

How about this compound: CCCCCCCCCCCCCCCC(=O)N[C@@H](CO)c1ccccc1 [Example 1]
0.4

====

# measured on: CB2 receptor (RBL-2H3 cell membranes) (Rattus norvegicus, UniProt Q9QZN9)
# Construct: Preparation of Plasmatic Membranes of RBL-2H3 Cells; endogenous in cells; host or cells: RBL-2H3 (rat basophilic leukemia) cell membranes
# Sequence (Q9QZN9 1-360): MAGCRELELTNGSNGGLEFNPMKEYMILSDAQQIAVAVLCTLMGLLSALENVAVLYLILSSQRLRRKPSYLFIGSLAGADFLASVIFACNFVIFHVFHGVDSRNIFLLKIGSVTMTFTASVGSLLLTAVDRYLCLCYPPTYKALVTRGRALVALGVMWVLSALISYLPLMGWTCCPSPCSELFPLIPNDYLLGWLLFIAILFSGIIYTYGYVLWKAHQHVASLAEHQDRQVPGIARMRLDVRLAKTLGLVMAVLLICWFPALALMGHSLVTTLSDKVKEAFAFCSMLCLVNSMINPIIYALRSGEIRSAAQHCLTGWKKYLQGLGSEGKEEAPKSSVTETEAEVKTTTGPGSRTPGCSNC
# experiment: Competitive displacement of 3H-WIN 55,212-2 binding to RBL-2H3 cell membranes
# conditions used: RBL-2H3 cell membranes; 1% DMSO; means ± SEM
endpoint label: pIC50
Please express pIC50 as -log10 of the molar concentration.

What does the data say about its pIC50? Entry: CCCCCCCCCCCC(=O)NCCO [Example 22, N-(2-hydroxyethyl)-lauroylamide]
7.74
